- System: Klebsiella pneumoniae
- test.summary: Antimicrobial activity against Non-ESBL Klebsiella pneumoniae assessed as susceptible isolate by broth microdilution method
- Assay type: functional
Reported Activity by item:
readout.type: Activity (%)

molecule | quantitative.result
CO/N=C(\C(=O)N[C@@H]1C(=O)N2C(C(=O)O)=C(CSc3nc(=O)c(O)nn3C)CS[C@H]12)c1csc(N)n1 [CEFTRIAXONE] | 99.3
CO/N=C(\C(=O)N[C@@H]1C(=O)N2C(C(=O)[O-])=C(C[N+]3(C)CCCC3)CS[C@H]12)c1csc(N)n1 | 99.7
CC(C)(O/N=C(\C(=O)N[C@@H]1C(=O)N2C(C(=O)[O-])=C(C[n+]3ccccc3)CS[C@H]12)c1csc(N)n1)C(=O)O [CEFTAZIDIME] | 99.2
C[C@@H](O)[C@H]1C(=O)N2C(C(=O)O)=C(S[C@@H]3CN[C@H](CNS(N)(=O)=O)C3)[C@H](C)[C@H]12 [DORIPENEM] | 99.7
C[C@@H](O)[C@H]1C(=O)N2C(C(=O)O)=C(SCCNC=N)C[C@H]12 [IMIPENEM ANHYDROUS] | 99.8
C[C@@H](O)[C@H]1C(=O)N2C(C(=O)O)=C(S[C@@H]3CN[C@H](C(=O)N(C)C)C3)[C@H](C)[C@H]12 [MEROPENEM] | 99.8
